koff reference
testedSystem: pSer413(Im) peptide (human)
Sequence (peptide, as listed by the source): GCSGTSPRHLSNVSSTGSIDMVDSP
testDetails: SPR (Biacore 3000), antibody captured by anti-mouse antibody, peptide as analyte, single cycle kinetics
Non-standard residues stand in square brackets, D forms with d. No end group written: not given here. pS = N[C@@H](COP(=O)(O)O)C(=O)O
Just the number in s⁻¹, nothing appended.

Ta1509 (antibody, V domains shown, also called Ta15 Series) VH: EVQLVESGGGLVQPKGSLKLSCAASGFAFNSFAMNWVRQAPGKGLDWIAHIRSKSNNYVTFYADSVKDRFIISRDDSQSMIYLQMNNLKTEDSGIYYCVRRGPRDSWFGYWGQGTLVTVSA VL: DVLMTQSPLSLPVSLGDQASISCRSSQNIVHTNGNTYLEWYLQKPGQSPKVLIYTVSNRFSGVPDRFSGSGSGTDFTLKISRVEAEDLGVYYCFQGSHLPLTFGGGTKL: 0.00125
Ta1501 (antibody, V domains shown, also called Ta15 Series) VH: EVHLVESGGELVQPKGSLKLSCAASGFAFNSFAMNWVRQTPGKGLNWVAHIRSKTNNYATFYADSVKDRFTISRDDSQNMLYLQMNNLKTEDTGIYYCVRRGPRDSWFGYWGQGTLVTVSA VL: DVLMTQTPLSLPVSLGDHASISCRSSQNIVHSNGNTYLEWYLQKPGQSPKVLIYTVSNRFSGVPDRFSGSGSGTDFTLKISRVEAEDLGVYYCFQGSHLPLTFGGGTKL: 0.00105
Ta1502 (antibody, V domains shown, also called Ta15 Series) VH: EVQLVESGGGLVQPKGSLKLSCAASGFAFNSFALNWVRQAPGKSLEWVVHIRSKTNNYATFYADSVKDRFTVSRDDSQNMVYLQMNNLKTEDTGIYYCVRRGPRDSWFGYWGQGTLVTVSA VL: DILMTQTPLSLPVSLGDQASISCRSSQNIVHSNGNTYLEWYLQKPGQSPKVLIYTVSNRFSGVPDRFSGSGSGTDFTLKISRVEAEDLGVYYCFQGSHLPLTFGGGTKL: 0.00047
Ta1505 (antibody, V domains shown, also called Ta1505-2) VH: EVQLVESGGGLVQPKGSLKLSCAASGFAFNSFALNWVRQAPGKSLEWVVHIRSKTNNYATFYADSVKDRFTVSRDDSQSMVYLQMNNLKTEDTGIYYCVRRGPRDSWFGYWGQGTLVTVSA VL: DILMTQTPLSLPVSLGDQASISCRSSQNIVHSNGNTYLEWYLQKPGQSPKVLIYTVSNRFSGVPDRFSGSGSGTDFTLKISRVEAEDLGVYYCFQGSHLPLTFGGGTKL: 0.000499

The record that follows has no koff shown yet.
In plain terms, Ta1507 (antibody, V domains shown, also called Ta15 Series) VH: EIQLVESGGGLVQPKGSLKLSCAASGFAFSSFALNWVRQAPGKSLDWVAHIRSKANHYVTFYADSVKDRFTVSRDDSQSMVYLQMNNLKTEDTGIYYCVRRGPRDSWFGYWGQGTLVTVSA VL: DVLLTQTPLSLPVSLGDQASISCRSSQNIVHSNGNTYLEWYLQKPGQSPKVLIYTVSNRFSGVPDRFSGSGSGTDFTLKISRVEAEDLGVYYCFQGSHLPLTFGGGTKL has a documented koff of 0.000533
